Target: FTO (Homo sapiens (Human), UniProt Q9C0B1)
Sequence (Q9C0B1 whole entry): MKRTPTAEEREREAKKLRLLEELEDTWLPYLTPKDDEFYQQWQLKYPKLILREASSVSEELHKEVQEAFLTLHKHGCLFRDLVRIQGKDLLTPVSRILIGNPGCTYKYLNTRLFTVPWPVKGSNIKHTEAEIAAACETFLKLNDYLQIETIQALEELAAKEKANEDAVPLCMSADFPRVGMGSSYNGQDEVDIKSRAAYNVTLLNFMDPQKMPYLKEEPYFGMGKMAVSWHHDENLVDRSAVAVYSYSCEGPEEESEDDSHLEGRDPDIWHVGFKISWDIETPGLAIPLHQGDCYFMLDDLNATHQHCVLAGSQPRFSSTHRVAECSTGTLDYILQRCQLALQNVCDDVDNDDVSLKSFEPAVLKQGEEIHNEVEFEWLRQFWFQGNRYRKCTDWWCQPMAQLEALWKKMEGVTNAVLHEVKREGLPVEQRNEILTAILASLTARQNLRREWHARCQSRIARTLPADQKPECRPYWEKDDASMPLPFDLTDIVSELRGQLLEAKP
Test: ELISA-based FTO inhibition assay (orthogonal control)
Format: biochemical
Settings: biotinylated m6A-RNA, 0-40 μM inhibitor; read-out: IC50 against FTO by ELISA assay
recorded metric: IC50 (nM)

compound	recorded metric	number
COc1ncc(-c2ccc3nc(N)sc3c2)cn1 [FTO-04]	IC50	2790

* * *

Target: YTHDF1 (Homo sapiens (Human), UniProt Q9BYJ9)
Sequence (Q9BYJ9 whole entry): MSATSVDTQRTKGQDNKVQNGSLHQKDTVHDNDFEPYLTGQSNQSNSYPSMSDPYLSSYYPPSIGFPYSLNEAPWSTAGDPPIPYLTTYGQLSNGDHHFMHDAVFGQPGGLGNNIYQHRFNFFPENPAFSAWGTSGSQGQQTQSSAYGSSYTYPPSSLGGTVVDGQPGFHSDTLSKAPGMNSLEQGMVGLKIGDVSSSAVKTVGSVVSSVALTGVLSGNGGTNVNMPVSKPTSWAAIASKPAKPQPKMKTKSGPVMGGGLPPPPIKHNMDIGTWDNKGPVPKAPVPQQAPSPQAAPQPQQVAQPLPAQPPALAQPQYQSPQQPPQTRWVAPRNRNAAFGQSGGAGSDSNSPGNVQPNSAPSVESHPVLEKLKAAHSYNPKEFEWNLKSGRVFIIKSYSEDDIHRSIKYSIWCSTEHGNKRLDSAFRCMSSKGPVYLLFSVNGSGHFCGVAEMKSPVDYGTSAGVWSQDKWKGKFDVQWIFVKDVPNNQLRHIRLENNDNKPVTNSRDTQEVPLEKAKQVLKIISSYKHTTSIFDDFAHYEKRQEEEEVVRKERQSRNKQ
Test: In vitro FRET assay for binding affinities of YTH inhibitors, YTHDF1
Settings: read-out: Ki YTHDF1
pKi: −log10 of the molar value.
Listed below: pKi values for each entry.
recorded metric: pKi

compound	recorded metric	number
CN(C)Cc1ccc(NCc2ccc(F)cc2)nc1	pKi	9.41
Fc1ccnc(Nc2ccc(CNC3CC3)cn2)c1	pKi	9.63
COc1ccc(CNc2ccc(CNC3CC3)cn2)cc1	pKi	9.79
Fc1cccc(F)c1CNc1ccc(CNC2CC2)cn1	pKi	9.55
CC(Nc1ccc(CN(C)C)cn1)c1ccccc1 (centres unmarked)	pKi	9.68

* * *

Parameter IC50: see the listing below.
Biological target: ALKBH5 (Homo sapiens (Human))
Assay: Fluorescence enzymatic inhibition assay (m6A7-Broccoli RNA / DFHBI-1T) against ALKBH5
Type: biochemical
Conditions: m6A7-Broccoli fluorescence assay, 0.250 μM ALKBH5; read-out: Enzymatic IC50 ALKBH5
recorded metric: IC50

1. COc1ccc2cc(-c3cnc(N)nc3)ccc2c1 > 40 µM
2. COc1ccc2cc(-c3cncnc3)ccc2c1 > 40 µM
3. FC(F)(F)c1cccc(CNCC2(N3CCCC3)COC2)c1 19.5 µM
4. COc1cccc2c(CNCC3(N4CCCC4)COC3)c[nH]c12 > 40 µM
5. Cc1ccc2cc(-c3cncnc3)ccc2n1 > 40 µM

* * *

Target: ALKBH5 (Homo sapiens (Human), UniProt Q6P6C2)
Sequence (Q6P6C2 whole entry): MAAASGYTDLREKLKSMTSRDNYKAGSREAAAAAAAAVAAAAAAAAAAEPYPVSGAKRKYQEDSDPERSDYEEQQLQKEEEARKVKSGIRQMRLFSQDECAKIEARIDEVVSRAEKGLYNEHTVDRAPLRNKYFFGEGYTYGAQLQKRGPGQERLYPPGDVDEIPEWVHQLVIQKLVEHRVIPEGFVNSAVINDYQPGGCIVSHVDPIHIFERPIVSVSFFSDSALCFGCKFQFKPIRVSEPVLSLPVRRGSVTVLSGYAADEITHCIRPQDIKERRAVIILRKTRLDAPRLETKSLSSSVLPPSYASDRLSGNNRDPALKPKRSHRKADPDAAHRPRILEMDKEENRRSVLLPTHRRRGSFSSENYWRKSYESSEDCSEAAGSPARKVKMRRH
Experiment: Fluorescence enzymatic inhibition assay (m6A7-Broccoli RNA / DFHBI-1T) against ALKBH5
Type: biochemical
Settings: Table 700 compounds; read-out: Enzymatic IC50 ALKBH5
pIC50: −log10 of the molar value.
pIC50 for assorted compounds

compound	pIC50
CCN(CC)c1ccc(C2NC(C(=O)OC)CS2)c(O)c1 (centres unmarked)	5.85
CC1(C)SCC(C)(C(=O)O)N1C(N)=O (centres unmarked)	4.70
CC(C)(C)OC(=O)N1CSC[C@@H]1CN	6.05
C[C@]1(Cn2ccnn2)C(C(=O)O)N2C(=O)C[C@H]2S1(=O)=O (some centres unmarked)	5.00
